meta.source: paper PMC8319603

- experimentSummary: PAMPA permeability
- Assay type: in vitro ADME
- testSettings: phosphate buffer at pH 7.4
readoutName: Papp at 5 h, 100 µM (×10⁻⁶ cm/s)
Write it as a number; the unit ×10⁻⁶ cm/s goes unstated.

Previously resolved entries follow.
COC(=O)NCCc1c(C(=O)c2ccccc2)[nH]c2ccccc12 | 32.3
CC(=O)NCCc1c(C(=O)c2cc(C(F)(F)F)cc(C(F)(F)F)c2)[nH]c2ccccc12 | 6.8

Now look at this entry.
Query: Papp at 5 h, 100 µM; subject: CC(=O)NCCc1c(C(=O)c2ccc([N+](=O)[O-])cc2)[nH]c2ccccc12 15.4

---

Here the recorded solubility kinetic at 18 h is given for each entry.
- experimentSummary: Kinetic solubility
- Type: physicochemical
- testSettings: phosphate buffered saline, aqueous buffer, kinetic from dmso stock; at 1 mg/ml in phosphate buffer at pH 7.4; read-out: Kinetic solubility of the compounds
Write it as a number; the unit µg/mL goes unstated.

Previously resolved entries follow.
COC(=O)NCCc1c(C(=O)c2ccccc2)[nH]c2ccccc12 | 67.4
CC(=O)NCCc1c(C(=O)c2ccc([N+](=O)[O-])cc2)[nH]c2ccccc12 | 56.9

Now look at this entry.
Query: solubility kinetic at 18 h; subject: CC(=O)NCCc1c(C(=O)c2cc(C(F)(F)F)cc(C(F)(F)F)c2)[nH]c2ccccc12 64.1

---

- experimentSummary: Plasma protein binding in human plasma (rapid equilibrium dialysis)
- Type: in vitro ADME
- testSettings: pH 7.4, human plasma, 10 μM, read-out: Human plasma protein binding %Ge free
Here the recorded fraction unbound at 10 μM is given for each entry.
Number, no unit, nothing else.

CC(=O)NCCc1c(C(=O)c2ccc([N+](=O)[O-])cc2)[nH]c2ccccc12 | 0.0952

Query: fraction unbound at 10 μM; subject: COC(=O)NCCc1c(C(=O)c2ccccc2)[nH]c2ccccc12 0.0213

Also CC(=O)NCCc1c(C(=O)c2cc(C(F)(F)F)cc(C(F)(F)F)c2)[nH]c2ccccc12 , if possible. 0.0064

---

Here the recorded IC50 is given for each entry.
- testTarget: recombinant protein of human IDO1 enzyme (Homo sapiens)
- Construct: purchased Biovision P1096
- Sequence (P14902 whole entry): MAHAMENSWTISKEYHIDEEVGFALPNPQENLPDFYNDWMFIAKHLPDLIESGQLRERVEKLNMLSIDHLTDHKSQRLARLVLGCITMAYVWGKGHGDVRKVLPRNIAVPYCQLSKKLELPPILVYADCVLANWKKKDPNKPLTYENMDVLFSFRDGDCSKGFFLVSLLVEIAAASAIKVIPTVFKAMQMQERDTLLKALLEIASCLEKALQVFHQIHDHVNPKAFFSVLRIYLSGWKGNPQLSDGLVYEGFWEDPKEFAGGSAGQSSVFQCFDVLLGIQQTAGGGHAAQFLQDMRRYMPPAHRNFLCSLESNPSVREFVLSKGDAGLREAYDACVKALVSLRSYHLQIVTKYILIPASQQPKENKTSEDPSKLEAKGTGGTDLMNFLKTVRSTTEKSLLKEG
- experimentSummary: IDO1 enzymatic assay in vitro (kynurenine formation, absorbance 492 nm)
- Type: biochemical
- testSettings: recombinant human IDO1, dose response study; read-out: IC50 against IDO1
Write it as a number; the unit nM goes unstated.

CC(=O)NCCc1c(C(=O)c2cc(C(F)(F)F)cc(C(F)(F)F)c2)[nH]c2ccccc12 [8a] | 1450

Now look at this entry.
Query: IC50; subject: COC(=O)NCCc1c(C(=O)c2ccccc2)[nH]c2ccccc12 [8e] 1520

---

- experimentSummary: Plasma protein binding in rat plasma (rapid equilibrium dialysis)
- Type: in vitro ADME
- testSettings: pH 7.4
Here the recorded fraction unbound at 10 μM is given for each entry.
Number, no unit, nothing else.

Previously resolved entries follow.
CC(=O)NCCc1c(C(=O)c2cc(C(F)(F)F)cc(C(F)(F)F)c2)[nH]c2ccccc12 | 0.027
CC(=O)NCCc1c(C(=O)c2ccc([N+](=O)[O-])cc2)[nH]c2ccccc12 | 0.179

Query: fraction unbound at 10 μM; subject: COC(=O)NCCc1c(C(=O)c2ccccc2)[nH]c2ccccc12 0.041

---

Here the recorded fraction unbound at 10 μM is given for each entry.
- experimentSummary: Plasma protein binding in human plasma (rapid equilibrium dialysis)
- Assay type: in vitro ADME
- testSettings: pH 7.4, human plasma, read-out: Fraction unbound in human plasma

COC(=O)NCCc1c(C(=O)c2ccccc2)[nH]c2ccccc12 | 0.021
CC(=O)NCCc1c(C(=O)c2ccc([N+](=O)[O-])cc2)[nH]c2ccccc12 | 0.095

Now look at this entry.
Query: fraction unbound at 10 μM; subject: CC(=O)NCCc1c(C(=O)c2cc(C(F)(F)F)cc(C(F)(F)F)c2)[nH]c2ccccc12 0.0064

---

- experimentSummary: Log D determination (octanol/buffer)
- Format: physicochemical
- testSettings: phosphate buffer at pH 7.4
readoutName: logD
Number, no unit, nothing else.

CC(=O)NCCc1c(C(=O)c2ccc([N+](=O)[O-])cc2)[nH]c2ccccc12 [8d] | 1.51

Query: logD; subject: CC(=O)NCCc1c(C(=O)c2cc(C(F)(F)F)cc(C(F)(F)F)c2)[nH]c2ccccc12 [8a] 1.32

Also COC(=O)NCCc1c(C(=O)c2ccccc2)[nH]c2ccccc12 [8e] , if possible. 2.95

---

- experimentSummary: Plasma protein binding in human plasma (rapid equilibrium dialysis)
- Assay type: in vitro ADME
- testSettings: pH 7.4, human plasma, 10 μM, read-out: Human plasma protein binding %Ge bound (converted)
Here the recorded fraction unbound at 10 μM is given for each entry.
Number, no unit, nothing else.

Query: fraction unbound at 10 μM; subject: COC(=O)NCCc1c(C(=O)c2ccccc2)[nH]c2ccccc12 0.0213

Also CC(=O)NCCc1c(C(=O)c2cc(C(F)(F)F)cc(C(F)(F)F)c2)[nH]c2ccccc12 , if possible. 0.0064

Also CC(=O)NCCc1c(C(=O)c2ccc([N+](=O)[O-])cc2)[nH]c2ccccc12 , if possible. 0.0952

---

- testTarget: recombinant protein of human IDO1 enzyme (Homo sapiens)
- Construct: purchased Biovision P1096
- experimentSummary: IDO1 enzymatic assay in vitro (kynurenine formation, absorbance 492 nm)
- Type: biochemical
- testSettings: recombinant human IDO1; read-out: IC50 against IDO1
readoutName: pIC50
Keep it numeric: pIC50 is minus log10 of the concentration in mol/L.

Query: pIC50; subject: CC(=O)NCCc1c(C(=O)c2ccc([N+](=O)[O-])cc2)[nH]c2ccccc12 [8d] 6.74

---

- experimentSummary: Log P determination (octanol/water)
- Type: physicochemical
- Procedure: For the DMPK studies of the compound 8a-d we used rat as well as human plasmas. Rat plasma was purchased from Hylasco Biotechnology Pvt. Ltd.™ Hyderabad, India. We have not performed any in vivo experiments for this manuscript neither for animals nor for humans. […] Also please note the blood plasma was obtained from the blood of Dr Srinivas R Maddi, who donated it and is the co-author of this article. […] Octanol and buffer layers were analysed by HPLC -UV by […]
readoutName: logP

CC(=O)NCCc1c(C(=O)c2cc(C(F)(F)F)cc(C(F)(F)F)c2)[nH]c2ccccc12 | > 3.5

Query: logP; subject: CC(=O)NCCc1c(C(=O)c2ccc([N+](=O)[O-])cc2)[nH]c2ccccc12 2.67

Also COC(=O)NCCc1c(C(=O)c2ccccc2)[nH]c2ccccc12 , if possible. 2.88
